Assignment: determine reported log10 of EC50 for the given compounds.
Molecular target: PfCDPK1 (Plasmodium falciparum (isolate 3D7), UniProt P62344)
Test: biochemical
// stored as log10 of EC50 expressed in nM

Ask | Dear colleague, I am looking for the recorded log10 of EC50 of the following compound: Nc1ncnc2c1c(-c1ccc3oc(-c4ccccc4)nc3c1)nn2CC1CCNCC1 [Compound 120]
Reply | 1.41

Ask | Dear colleague, I am looking for the recorded log10 of EC50 of the following compound: CC(C)COc1ccc2cc(-c3nn(CC4CCNCC4)c4ncnc(N)c34)ccc2c1 [Compound 44]
Reply | 2.26

Ask | Dear colleague, I am looking for the recorded log10 of EC50 of the following compound: CC(C)(C)c1nc(-c2ccc3ccccc3c2)c2c(N)nccn12 [Compound 84]
Reply | 1.79

Ask | Dear colleague, I am looking for the recorded log10 of EC50 of the following compound: Cc1cccc2[nH]c(-c3nc(C(C)(C)C)n4ccnc(N)c34)cc12 [Compound 83]
Reply | 3.03

Ask | Dear colleague, I am looking for the recorded log10 of EC50 of the following compound: Nc1ncnc2c1c(-c1ccc3cc(OCc4ccccc4Cl)ccc3c1)nn2CC1CCNCC1 [Compound 37]
Reply | 1.98

Ask | Dear colleague, I am looking for the recorded log10 of EC50 of the following compound: CC(C)n1nc(-c2ccc3cc(OCc4ccc(C(C)(C)C)cc4)ccc3c2)c2c(N)ncnc21 [Compound 54]
Reply | 1.68

Ask | Dear colleague, I am looking for the recorded log10 of EC50 of the following compound: Cn1ccc2cc(-c3nn(C(C)(C)C)c4ncnc(N)c34)ccc21 [Compound 139]
Reply | 3.06

Ask | Dear colleague, I am looking for the recorded log10 of EC50 of the following compound: Nc1ncnc2c1c(-c1ccc3cc(OCc4cccc(Cl)c4)ccc3c1)nn2CC1CCNCC1 [Compound 38]
Reply | 1.66

* * *

Assignment: determine reported Cell Toxicity CRL8155, % at 25 μM for the given compounds.
System: human lymphocyte (CRL8155)
Assay: Growth inhibition of human cell line CRL8155
Conditions: 25 μM
Respond numerically; units are % at 25 μM and should not be typed.

Ask | Dear colleague, I am looking for the recorded Cell Toxicity CRL8155, % at 25 μM of the following compound: `CC(C)n1nc(-c2ccc3ccccc3c2)c2c(N)ncnc21`
Reply | 46

Ask | Dear colleague, I am looking for the recorded Cell Toxicity CRL8155, % at 25 μM of the following compound: `CC(C)n1nc(-c2ccc(Cl)c(Cl)c2)c2c(N)ncnc21`
Reply | 54

* * *

Target: PfCDPK4 (Plasmodium falciparum (isolate 3D7), UniProt Q8IBS5)
Assay: biochemical
measure name: IC50 (nM)
Respond numerically; units are nM and should not be typed.

Ask | Dear colleague, I am looking for the recorded IC50 of the following molecule: `CCOc1ccc2cc(-c3nn(CC4CCN(C)CC4)c4ncnc(N)c34)ccc2c1`
Reply | 10

* * *

Molecular target: PfCDPK4 (Plasmodium falciparum (isolate 3D7))
Assay: biochemical
Settings: read-out: PfCDPK4 (% inhibition @ 3 uM)
measure name: inhibition at 3 µM (%)
Respond numerically; units are % and should not be typed.

Ask | Dear colleague, I am looking for the recorded inhibition at 3 µM of the following molecule: `COc1ccc(-c2nn(C(C)C)c3ncnc(N)c23)cc1`
Reply | 30

Ask | Dear colleague, I am looking for the recorded inhibition at 3 µM of the following molecule: `COc1cc(-c2nn(C(C)C)c3ncnc(N)c23)cc(OC)c1OC`
Reply | 31

Ask | Dear colleague, I am looking for the recorded inhibition at 3 µM of the following molecule: `CC(C)(C)n1nc(-c2ccc(-c3nn(C(C)(C)C)c4ncnc(N)c34)cc2)c2c(N)ncnc21`
Reply | 55

Ask | Dear colleague, I am looking for the recorded inhibition at 3 µM of the following molecule: `Cc1cccc(-c2nn(C(C)C)c3ncnc(N)c23)c1`
Reply | 64

Ask | Dear colleague, I am looking for the recorded inhibition at 3 µM of the following molecule: `CSc1cccc(-c2nn(C(C)C)c3ncnc(N)c23)c1`
Reply | 79
